From: patent US20190338002A1

# SUBJECT OF TEST: T1, human beta CGRP (SEQ ID NO: 81) (human, not fully specified)
# T1 peptide: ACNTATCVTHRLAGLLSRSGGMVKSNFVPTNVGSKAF
# TEST PROTOCOL: cell-based or functional assay
Measured IC50, CGRP-induced cAMP production, SK-N-MC cells, listed per entry.
MEASUREMENT LABEL: IC50, CGRP-induced cAMP production, SK-N-MC cells

INSERT INTO measurements (binder, reported) VALUES
  ('lipocalin mutein SEQ ID NO: 17 (designed binder, biotinylated by NHS chemistry for capture in SPR) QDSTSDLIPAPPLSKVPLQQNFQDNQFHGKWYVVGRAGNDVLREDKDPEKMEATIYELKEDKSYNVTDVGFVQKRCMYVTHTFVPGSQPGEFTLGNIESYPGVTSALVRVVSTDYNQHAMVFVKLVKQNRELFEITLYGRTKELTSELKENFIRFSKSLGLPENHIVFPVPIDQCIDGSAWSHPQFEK', '0.23 nM'),
  ('lipocalin mutein SEQ ID NO: 26 (designed binder, biotinylated by NHS chemistry for capture in SPR) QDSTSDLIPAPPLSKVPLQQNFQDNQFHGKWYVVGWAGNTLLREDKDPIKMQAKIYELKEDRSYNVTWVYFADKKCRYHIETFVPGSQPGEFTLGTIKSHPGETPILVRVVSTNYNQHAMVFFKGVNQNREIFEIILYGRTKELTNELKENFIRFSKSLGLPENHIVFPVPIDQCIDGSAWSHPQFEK', '0.26 nM');
